The reported numbers originate from the NTF2 design screens of Basanta et al. (2020).

- test-details: protease stability score; higher = more stable; yeast display proteolysis, trypsin and chymotrypsin;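 also: log10 excess protease needed over predicted unfolded state with 0 meaning unfolded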
Decide by protease stability score: equal to or exceeding 0.6 means True, less means False.

biopolymer-sequence: EDRDKVRRAIKRMLDVMSTGDEDKLREYADENVKINVGDKDVHGREEAARFLKTHADQYDHIDQRIQDVKKENGQVEVRREMEATHNGHTHRDREHIVVEIRGDNMKIKSIQRQ
label-value: False
--
biopolymer-sequence: DDRQVERLAKEVVKNLETGNPNEFMKLMDPNAKFEVGDQDIHGREQWSEWVDHLSKHVDSLEVKSVTAHNGRVDIDMVFRVNGEKRVVKIVITVKNGHIKEMEIREQ
label-value: True
--
biopolymer-sequence: DDHLRQVMEELKKAEDTGNPDRYVELADEDVEVHVGDTTLKGRTQHREEIKTQKDQSRLSINIQHVDVDGDKVRVQFVFENDHNGKPSTDRQQFVVRAHNGRVKRIENEERR
label-value: False
--
biopolymer-sequence: DDHNVRVMREIQKAIEKNDEKRFKELVDPNVRVRIGDNLIHGRDNVAKELKREMDHMRKNIRSMSIDDEGDHVVINIEYEQNENGHPDTNRVQVSAELHNGKLKEMHISSRQ
label-value: True
--
biopolymer-sequence: DEHKIAKKLADTVMSLMKTGNFDQLAKQADPNVKIEIGDTTIHGREELVKTQKRLNDQIDHVDVRVNKVQMHGDKVNIDMDFVINVNGKNERRKLTVRAKVHNGRAIITEIRYG
label-value: True
--
biopolymer-sequence: DEEARNVFEEILKAIRHGDPDHAKNLADPNARIRVGDKKVDGMEQWATEMHHNWQEIRIHMRITSVDHQGEKVRLHLSRTSNHNGRPRKADIDLEMVATNGKLKSQKHSQKK
label-value: False
--
biopolymer-sequence: DEKKAEEMLRRVVKLFRNGDVETVRKMGKDDVEVKYLDETRHGPDAMKKMLEKMKKLGAEVEYKEVHVEGDKATVKVEANIDGTTVRFHVTYQVKDHRVENVKVEYSEKAKKAIKHG
label-value: True
--
biopolymer-sequence: DSRAANLFSHAWKQVETGNNHNFRKLLDPNARRKVGDQTIDGREEMTEDNKRKRKEMHRTIETMSFEDHGDKAVFYMQYVVHHNGEPREIRNRVIIKVRGDRIKEVEVRKDG
label-value: False
--
biopolymer-sequence: DEEKLRRMAERLIRAFDQGDRKRMEDNMDPNVELQVGETVFHGREQVTKALYELRKQVDHFELKSVDIKGEKVVVHVILNINGKHVEMNWVFEAHDGKVKEIKLNPDNQREAET
label-value: True
--
biopolymer-sequence: DREEVKKIKRLIETNDWRTLAQQADENVEIVYGNKTIHGREQALKFWDILRKHADHIEIKRFDNQGDKVRVNMTVEVNGRHITMNMNIVFHNGRLKEVEIRVTDEKQLKEIEDLVQ
label-value: True
--
biopolymer-sequence: DKEHLKRMVETIIKILETGDPDKMKNLADENVRVEVGDKDVHGKDTLRKHIEEWRRQIDHLEVKSVRVKGNKASIHFVVRVNGTDKTVVVVFDIHNGKIKMVHYTDS
label-value: True

====

- test-details: protease stability score; higher = more stable; yeast display proteolysis, trypsin and chymotrypsin;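 also: log10 excess protease needed over predicted unfolded state with 0 meaning unfolded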

biopolymer-sequence: DEEHDEKVARSVARNITHGNEKSLRKQLPEDARVVYGDKTYHGRERAANVAKEFDERADHNRVDDLRVQNGRAELIFIVNVDGKNVRAVMIVDVHNGKAKLVMIKWTNPDDQRDLEK
protease stability score: 0.159
//
biopolymer-sequence: DEHDAESIQSVLTNGNFESMDELADKDVHVDVGNKRYHGQEQFRTLQTHYKNRVDHVDMHRLTQDGEKINADMRAVVNGKDFQFELVIKVHNGRIRRLQLNFTSDSQDKEHEERLR
protease stability score: 0.496
//
biopolymer-sequence: DEENAERLKKIFRAVQENDSKQIERNFDPNAEVTYGDKTVTGREEQSREYHKILHEIRVRIQIKHVKVHNGRLSIHAKMDREHNGEPDDATLIVEAHFHNGKATEQQNDVHK
protease stability score: 0.44
